Data credit: patent US10981926B2

study.system: UniProt:P10275
protocol.summary: LNCaP-AR-wt AG reporter assay (agonist mode)
Assay type: cell-based
conditions: maximum % stimulation (agonist response) over the tested concentration range; read-out: LNCaP-AR-wt AG MAX % Stim
measured.endpoint: Emax (%)

Consider the following illustrative entries.
CN1CC[C@H](Oc2ccc(N3C(=S)N(c4cnc(C#N)c(C(F)(F)F)c4)C(=O)C34CCC4)cc2)[C@@H](F)C1 (racemic) :: 0.3
CN1CCC(CNC(=O)c2ccc(N3C(=S)N(c4cnc(C#N)c(C(F)(F)F)c4)C(=O)C34CCC4)cc2)CC1 :: -0.1

A: CN1CCC(n2ncc3cc(N4C(=S)N(c5cnc(C#N)c(C(F)(F)F)c5)C(=O)C45CCC5)ccc32)CC1
B: CN1CC2CCC(C1)C2Oc1ccc(N2C(=S)N(c3cnc(C#N)c(C(F)(F)F)c3)C(=O)C23CCC3)cn1 (stereo not drawn)
C: Cc1cc(N2C(=O)C3(CCC3)N(c3ccc(-c4cnn(C(N)=O)c4)cc3)C2=S)cnc1C#N
D: N#Cc1ncc(N2C(=O)C3(CCC3)N(c3ccc(OC4CCN(CCF)CC4)cc3)C2=S)cc1C(F)(F)F
E: N#Cc1ncc(N2C(=O)C3(CCC3)N(c3ccc4c(cnn4C4CCNCC4)c3)C2=S)cc1C(F)(F)F
Asked: Number of compounds to sort: 5. Sort criterion: Emax, ascending. Rank the items, then write their labels in that order.
Given back: B, A, E, D, C

###

study.system: F876L mutant Androgen Receptor (AR-F876L) (Homo sapiens (Human), UniProt P10275, F877L)
Sequence (P10275 whole entry F877L): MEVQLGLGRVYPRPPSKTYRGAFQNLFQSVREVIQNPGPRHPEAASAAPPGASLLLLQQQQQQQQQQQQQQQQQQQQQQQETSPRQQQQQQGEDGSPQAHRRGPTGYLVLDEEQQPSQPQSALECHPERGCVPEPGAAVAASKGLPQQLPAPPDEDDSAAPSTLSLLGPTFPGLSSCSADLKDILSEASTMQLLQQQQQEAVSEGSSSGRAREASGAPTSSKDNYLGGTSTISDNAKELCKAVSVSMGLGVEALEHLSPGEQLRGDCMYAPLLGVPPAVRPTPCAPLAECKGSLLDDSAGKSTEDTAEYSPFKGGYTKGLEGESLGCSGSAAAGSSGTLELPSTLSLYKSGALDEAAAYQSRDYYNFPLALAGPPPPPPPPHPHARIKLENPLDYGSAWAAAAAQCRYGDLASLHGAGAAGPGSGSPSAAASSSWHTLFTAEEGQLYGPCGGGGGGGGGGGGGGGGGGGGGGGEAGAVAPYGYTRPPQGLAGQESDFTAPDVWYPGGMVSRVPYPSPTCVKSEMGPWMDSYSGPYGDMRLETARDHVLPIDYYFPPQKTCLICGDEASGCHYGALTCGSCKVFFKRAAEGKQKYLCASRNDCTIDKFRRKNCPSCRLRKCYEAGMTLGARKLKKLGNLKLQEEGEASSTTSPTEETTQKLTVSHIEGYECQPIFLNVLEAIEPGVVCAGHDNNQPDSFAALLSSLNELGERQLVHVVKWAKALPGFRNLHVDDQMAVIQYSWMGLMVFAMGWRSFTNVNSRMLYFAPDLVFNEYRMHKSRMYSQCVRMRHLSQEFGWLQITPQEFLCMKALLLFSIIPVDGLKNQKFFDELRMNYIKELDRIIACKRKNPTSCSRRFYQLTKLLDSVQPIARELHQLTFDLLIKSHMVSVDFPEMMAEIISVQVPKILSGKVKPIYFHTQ
protocol.summary: LNCaP-AR-F876L ANT reporter assay (antagonist mode)
Assay type: cell-based
conditions: maximum % inhibition of R1881 control response over the tested concentration range; read-out: LNCaP-AR-F876L ANT MAX % Inh
measured.endpoint: Emax (%)

Example entries begin here.
N#Cc1ncc(N2C(=O)C3(CCC3)N(c3ccc(OC4CCN(CC(F)(F)F)CC4)cc3)C2=S)cc1C(F)(F)F :: 96
CCOC(=O)N1CCN(C(=O)c2ccc(N3C(=S)N(c4cnc(C#N)c(C(F)(F)F)c4)C(=O)C34CCC4)cc2)CC1 :: 87.1
CN1CCc2cc(N3C(=S)N(c4cnc(C#N)c(C(F)(F)F)c4)C(=O)C34CCC4)ccc2C1 :: 98.1
CN1CCC(Oc2ccc(N3C(=S)N(c4cnc(C#N)c(C(F)(F)F)c4)C(=O)C34CCC4)cn2)CC1 :: 101

A: N#Cc1ncc(N2C(=O)C3(CCC3)N(c3ccc4nn(C5CCNCC5)cc4c3)C2=S)cc1C(F)(F)F
B: Cl.N#Cc1ncc(N2C(=O)C3(CCC3)N(c3cnc(OC4CCNCC4)nc3)C2=S)cc1C(F)(F)F
Asked: I'm curious whether A or B has the smaller Emax number. Which is it? Which one? Tell me its label.
Given back: B

###

study.system: wild-type Androgen Receptor (AR-wt) (Homo sapiens (Human))
Sequence (P10275 whole entry): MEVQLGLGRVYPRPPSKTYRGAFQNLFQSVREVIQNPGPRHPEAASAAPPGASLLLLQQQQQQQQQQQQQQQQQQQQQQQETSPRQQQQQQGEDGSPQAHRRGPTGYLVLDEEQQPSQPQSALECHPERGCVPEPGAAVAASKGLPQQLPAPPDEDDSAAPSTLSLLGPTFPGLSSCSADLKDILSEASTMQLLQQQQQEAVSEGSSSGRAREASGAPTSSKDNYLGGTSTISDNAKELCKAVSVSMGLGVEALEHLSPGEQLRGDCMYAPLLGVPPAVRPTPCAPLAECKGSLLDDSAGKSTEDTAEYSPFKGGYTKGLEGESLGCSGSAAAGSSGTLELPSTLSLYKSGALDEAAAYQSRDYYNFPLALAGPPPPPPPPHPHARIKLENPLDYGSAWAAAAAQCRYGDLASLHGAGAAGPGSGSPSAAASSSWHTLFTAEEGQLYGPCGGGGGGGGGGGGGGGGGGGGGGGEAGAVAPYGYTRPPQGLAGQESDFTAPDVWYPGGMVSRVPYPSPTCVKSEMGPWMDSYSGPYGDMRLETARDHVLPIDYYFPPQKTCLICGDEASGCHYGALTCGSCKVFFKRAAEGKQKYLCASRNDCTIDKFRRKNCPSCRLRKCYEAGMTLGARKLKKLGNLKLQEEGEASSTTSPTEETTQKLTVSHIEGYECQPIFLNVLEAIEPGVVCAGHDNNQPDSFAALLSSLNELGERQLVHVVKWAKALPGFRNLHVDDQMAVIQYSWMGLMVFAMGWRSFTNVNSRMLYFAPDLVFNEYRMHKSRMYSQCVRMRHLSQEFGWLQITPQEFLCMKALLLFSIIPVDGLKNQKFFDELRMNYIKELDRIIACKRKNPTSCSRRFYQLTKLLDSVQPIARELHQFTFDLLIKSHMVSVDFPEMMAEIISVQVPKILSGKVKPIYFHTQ
protocol.summary: LNCaP-AR-wt ANT reporter assay (antagonist mode)
Type: cell-based
conditions: maximum % inhibition of R1881 control response over the tested concentration range; read-out: LNCaP-AR-wt ANT MAX % Inh
measured.endpoint: Emax (%)

CC(C)(C)OC(=O)N1CC(F)(F)CC1COc1ccc(N2C(=S)N(c3cnc(C#N)c(C(F)(F)F)c3)C(=O)C23CCC3)cc1 (stereo not drawn) :: 84.5
CN1CCC(Oc2ccc(N3C(=S)N(c4cnc(C#N)c(C(F)F)c4)C(=O)C34CCC4)cc2)CC1 :: 99.3
CNC(=O)Cc1ccc(N2C(=S)N(c3cnc(C#N)c(C)c3)C(=O)C23CCC3)cc1 :: 86.6
Cc1cc(N2C(=O)C3(CCC3)N(c3ccc(OC4CCNCC4)nc3)C2=S)cnc1C#N :: 101
CN1CCCC(Oc2ccc(N3C(=S)N(c4cnc(C#N)c(C(F)(F)F)c4)C(=O)C34CCC4)cc2)CC1 (stereo not drawn) :: 101
N#Cc1ncc(N2C(=O)C3(CCC3)N(c3ccc4nn(C5CCNCC5)cc4c3)C2=S)cc1Cl :: 106
CN1CC(COc2ccc(N3C(=S)N(c4cnc(C#N)c(C(F)(F)F)c4)C(=O)C34CCC4)cc2)C1 :: 102
CN1CCC(Oc2ncc(N3C(=S)N(c4cnc(C#N)c(C(F)(F)F)c4)C(=O)C34CCC4)cn2)CC1 :: 101
N#Cc1ncc(N2C(=O)C3(CCC3)N(c3ccc4nn(CCO)cc4c3)C2=S)cc1C(F)(F)F :: 97.2
CN1CC2CC1CC2Oc1ccc(N2C(=S)N(c3cnc(C#N)c(C(F)(F)F)c3)C(=O)C23CCC3)cn1 (stereo not drawn) :: 102
CC(=O)N1CCc2cc(N3C(=S)N(c4cnc(C#N)c(C(F)(F)F)c4)C(=O)C34CCC4)ccc2C1 :: 100
N#Cc1ncc(N2C(=O)C3(CCC3)N(c3ccc4c(cnn4C4CCNCC4)c3)C2=S)cc1Cl :: 103
N#Cc1ncc(N2C(=O)C3(CCC3)N(c3ccc4nn(C5CCNCC5)cc4c3)C2=S)cc1C(F)(F)F :: 87
N#Cc1ncc(N2C(=O)C3(CCC3)N(c3ccc(OC4CCNCC4(F)F)cc3)C2=S)cc1C(F)(F)F (racemic) :: 105
COC(=O)CN1CCC(Oc2ccc(N3C(=S)N(c4cnc(C#N)c(C(F)(F)F)c4)C(=O)C34CCC4)cc2)CC1 :: 98.9
